# target-desc: ATP-dependent translocase ABCB1 (Homo sapiens, UniProt P08183)
# Sequence (P08183 whole entry): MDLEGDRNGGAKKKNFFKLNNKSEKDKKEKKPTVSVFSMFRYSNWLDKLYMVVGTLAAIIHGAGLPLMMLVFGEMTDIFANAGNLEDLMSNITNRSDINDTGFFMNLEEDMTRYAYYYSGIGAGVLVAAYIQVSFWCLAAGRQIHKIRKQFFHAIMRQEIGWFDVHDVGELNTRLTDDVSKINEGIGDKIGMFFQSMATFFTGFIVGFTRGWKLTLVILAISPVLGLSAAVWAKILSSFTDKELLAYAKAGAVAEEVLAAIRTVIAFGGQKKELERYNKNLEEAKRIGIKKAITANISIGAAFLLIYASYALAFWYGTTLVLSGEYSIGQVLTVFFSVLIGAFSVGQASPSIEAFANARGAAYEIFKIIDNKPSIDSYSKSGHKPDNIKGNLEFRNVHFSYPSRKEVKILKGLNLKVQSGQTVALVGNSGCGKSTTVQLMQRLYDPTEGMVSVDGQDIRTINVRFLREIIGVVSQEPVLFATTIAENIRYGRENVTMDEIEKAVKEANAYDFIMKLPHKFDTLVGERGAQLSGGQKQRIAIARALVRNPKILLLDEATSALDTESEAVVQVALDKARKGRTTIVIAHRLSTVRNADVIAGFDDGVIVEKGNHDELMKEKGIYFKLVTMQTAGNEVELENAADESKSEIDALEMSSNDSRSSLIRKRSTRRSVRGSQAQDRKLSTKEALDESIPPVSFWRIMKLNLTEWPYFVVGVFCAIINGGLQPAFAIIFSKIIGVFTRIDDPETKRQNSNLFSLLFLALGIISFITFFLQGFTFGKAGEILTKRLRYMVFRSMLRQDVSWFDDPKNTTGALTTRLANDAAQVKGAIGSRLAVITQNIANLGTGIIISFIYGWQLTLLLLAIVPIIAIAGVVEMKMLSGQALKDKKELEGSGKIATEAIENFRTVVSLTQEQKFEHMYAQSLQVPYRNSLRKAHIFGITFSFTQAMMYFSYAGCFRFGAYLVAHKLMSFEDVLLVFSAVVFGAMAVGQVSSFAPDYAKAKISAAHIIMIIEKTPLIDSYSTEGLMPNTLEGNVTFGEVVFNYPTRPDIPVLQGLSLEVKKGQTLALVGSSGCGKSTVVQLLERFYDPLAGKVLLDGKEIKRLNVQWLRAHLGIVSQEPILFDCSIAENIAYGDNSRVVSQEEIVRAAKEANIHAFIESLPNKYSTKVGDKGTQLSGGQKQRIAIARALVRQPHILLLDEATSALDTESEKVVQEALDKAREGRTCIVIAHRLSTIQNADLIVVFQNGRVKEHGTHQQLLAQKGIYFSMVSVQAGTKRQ
# measurement-protocol: Inhibition of human MDR1 expressed in mouse L5178Y cells assessed as […] by measuring fluorescence activity ratio at 1 uM preincubated for 10 mins measured after 40 mins relative to control
# Assay type: cell-based
result-type: RFU
One number for each entry.

The examples below pair each entry with its known result.
CCOC(=O)C1=CN(Cc2ccc(C)cc2)C=CC1c1ccccc1 (stereo unspecified) : 2.54
COC(=O)C1=CN(Cc2ccccc2)C=CC1c1cccc(C(F)(F)F)c1 (stereo unspecified) : 1.05

Consider the following items and state reported RFU for each.
1. CCOC(=O)C1=CN(Cc2ccccc2)C=CC1c1cccc(Cl)c1 (stereo unspecified)
2. COC(=O)C1=CN(Cc2ccccc2)C=CC1c1ccccc1OC (stereo unspecified)

Ans.
1. 1.25
2. 1.13

Dear colleague, could you please provide RFU for the compounds listed below?
1. COC(=O)C1=CN(Cc2ccccc2)C=CC1c1cccc(Cl)c1 (stereo unspecified)
2. CCOC(=O)C1=CN(Cc2ccccc2)C=CC1c1cccc2ccccc12 (stereo unspecified)
3. COC(=O)C1=CN(Cc2cccc3ccccc23)C=CC1c1ccccc1 (stereo unspecified)
4. COC(=O)C1=CN(Cc2ccc(C)cc2)C=CC1c1ccccc1 (stereo unspecified)
5. COC(=O)C1=CN(Cc2ccccc2)C=CC1c1cccc2ccccc12 (stereo unspecified)
6. CCOC(=O)C1=CN(Cc2ccccc2)C=CC1c1ccc(OC)cc1 (stereo unspecified)

Ans.
1. 1.12
2. 1.43
3. 1.19
4. 1.72
5. 1.22
6. 1.52

Qu. Item under review: COC(=O)C1=CN(Cc2ccccc2)C=CC1c1ccc(C)cc1 (stereo unspecified) . Reported RFU?
Ans. 1.11
